- ASSAYED SYSTEM: GSK3B (Homo sapiens)
- Construct: purchased in-house thermal shift (DSF) kinase panel (SGC Frankfurt); Promega NanoBRET for AURKA/B/C
- Sequence (P49841 35-386): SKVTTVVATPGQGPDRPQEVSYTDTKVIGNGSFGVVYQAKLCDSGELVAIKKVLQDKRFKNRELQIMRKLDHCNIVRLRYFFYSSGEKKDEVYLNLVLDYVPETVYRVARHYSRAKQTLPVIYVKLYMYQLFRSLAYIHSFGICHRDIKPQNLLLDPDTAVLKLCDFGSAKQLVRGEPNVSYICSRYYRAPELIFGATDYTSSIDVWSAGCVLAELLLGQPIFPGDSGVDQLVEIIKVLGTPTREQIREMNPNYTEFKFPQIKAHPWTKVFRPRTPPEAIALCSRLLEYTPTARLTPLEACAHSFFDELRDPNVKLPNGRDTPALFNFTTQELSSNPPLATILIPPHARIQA
- PROTOCOL NOTES: Thermal shift assay
- Type: binding
- TEST SETTINGS: compound 10 µM; n = 3; read-out: ΔTm GSK3B
EXPERIMENTAL READOUT: ΔTm at 10 µM (°C)
Numbers only; they are read as °C.

Let me know recorded ΔTm at 10 µM for NC(=O)Cc1ccc(Nc2ncc(F)c(Nc3ccc(C(=O)Nc4ccccc4Cl)cc3)n2)cc1 , thanks.
3.1

Let me know recorded ΔTm at 10 µM for CCN1CCN(C(=O)Cc2ccc(Nc3ncc(F)c(Nc4ccc(C(=O)O)cc4)n3)cc2)CC1 , thanks.
1

Let me know recorded ΔTm at 10 µM for O=C(Cc1ccc(Nc2ncc(F)c(Nc3ccc(C(=O)Nc4ccccc4Cl)cc3)n2)cc1)NCCN1CCOCC1 , thanks.
2

Let me know recorded ΔTm at 10 µM for CCN1CCN(C(=O)Cc2ccc(Nc3ncc(F)c(Nc4ccc(C(=O)Nc5ccccc5)cc4)n3)cc2)CC1 , thanks.
3.6

---

- ASSAYED SYSTEM: MERTK (Homo sapiens, UniProt Q12866)
- Construct: purchased in-house thermal shift (DSF) kinase panel (SGC Frankfurt); Promega NanoBRET for AURKA/B/C
- Sequence (Q12866 570-864): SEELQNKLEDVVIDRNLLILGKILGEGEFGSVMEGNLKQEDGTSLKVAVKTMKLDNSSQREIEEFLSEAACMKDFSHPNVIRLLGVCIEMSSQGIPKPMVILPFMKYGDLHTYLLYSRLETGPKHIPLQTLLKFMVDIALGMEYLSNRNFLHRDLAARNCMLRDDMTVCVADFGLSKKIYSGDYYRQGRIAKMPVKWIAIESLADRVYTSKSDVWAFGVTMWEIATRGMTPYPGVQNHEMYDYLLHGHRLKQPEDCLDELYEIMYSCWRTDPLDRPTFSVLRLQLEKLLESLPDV
- PROTOCOL NOTES: Thermal shift assay
- Format: binding
- TEST SETTINGS: compound 10 µM; n = 3; read-out: ΔTm MERTK
EXPERIMENTAL READOUT: ΔTm at 10 µM (°C)
Numbers only; they are read as °C.

Let me know recorded ΔTm at 10 µM for O=C(Cc1ccc(Nc2ncc(F)c(Nc3ccc(C(=O)Nc4ccccc4Cl)cc3)n2)cc1)NCCN1CCOCC1 , thanks.
0.9

Let me know recorded ΔTm at 10 µM for CCN1CCN(C(=O)Cc2ccc(Nc3ncc(F)c(Nc4ccc(C(=O)Nc5ccccc5)cc4)n3)cc2)CC1 , thanks.
1.7

Let me know recorded ΔTm at 10 µM for NC(=O)Cc1ccc(Nc2ncc(F)c(Nc3ccc(C(=O)Nc4ccccc4Cl)cc3)n2)cc1 , thanks.
1.3

Let me know recorded ΔTm at 10 µM for CCN1CCN(C(=O)Cc2ccc(Nc3ncc(F)c(Nc4ccc(C(=O)O)cc4)n3)cc2)CC1 , thanks.
0.3

---

Assignment: determine reported ΔTm at 10 µM for the given compounds.
- ASSAYED SYSTEM: CASK (Homo sapiens)
- Construct: purchased in-house thermal shift (DSF) kinase panel (SGC Frankfurt); Promega NanoBRET for AURKA/B/C
- Sequence (O14936 1-337): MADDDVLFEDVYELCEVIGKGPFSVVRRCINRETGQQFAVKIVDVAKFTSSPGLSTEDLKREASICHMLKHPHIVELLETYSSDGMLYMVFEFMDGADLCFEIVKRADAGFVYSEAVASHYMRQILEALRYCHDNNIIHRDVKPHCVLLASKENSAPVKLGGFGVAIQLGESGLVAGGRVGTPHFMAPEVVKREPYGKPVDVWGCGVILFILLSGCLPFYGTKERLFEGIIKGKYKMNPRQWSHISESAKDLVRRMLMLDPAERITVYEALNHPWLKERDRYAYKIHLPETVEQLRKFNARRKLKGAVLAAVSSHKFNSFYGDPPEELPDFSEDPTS
- PROTOCOL NOTES: Thermal shift assay
- Format: binding
- TEST SETTINGS: compound 10 µM; n = 3; read-out: ΔTm CASK
Numbers only; they are read as °C.

Provide CASK (Homo sapiens) ΔTm at 10 µM reading for CCN1CCN(C(=O)Cc2ccc(Nc3ncc(F)c(Nc4ccc(C(=O)O)cc4)n3)cc2)CC1 [ERJ2-12] .
0

Provide CASK (Homo sapiens) ΔTm at 10 µM reading for CCN1CCN(C(=O)Cc2ccc(Nc3ncc(F)c(Nc4ccc(C(=O)Nc5ccccc5)cc4)n3)cc2)CC1 [ERJ2-11] .
-0.1

Provide CASK (Homo sapiens) ΔTm at 10 µM reading for NC(=O)Cc1ccc(Nc2ncc(F)c(Nc3ccc(C(=O)Nc4ccccc4Cl)cc3)n2)cc1 [ERJ2-06] .
0.1

Provide CASK (Homo sapiens) ΔTm at 10 µM reading for O=C(Cc1ccc(Nc2ncc(F)c(Nc3ccc(C(=O)Nc4ccccc4Cl)cc3)n2)cc1)NCCN1CCOCC1 [ERJ2-04] .
0.1

Value source: paper PMC8776063
